biological target: OATP1B1 (Homo sapiens, UniProt Q9Y6L6); construct: expressed in transfected cells; host or cells: A431; experiment: OATP1B1-mediated pyranine uptake in A431 cells overexpressing OATP1B1; assay type: cell-based
Sequence (Q9Y6L6 whole entry): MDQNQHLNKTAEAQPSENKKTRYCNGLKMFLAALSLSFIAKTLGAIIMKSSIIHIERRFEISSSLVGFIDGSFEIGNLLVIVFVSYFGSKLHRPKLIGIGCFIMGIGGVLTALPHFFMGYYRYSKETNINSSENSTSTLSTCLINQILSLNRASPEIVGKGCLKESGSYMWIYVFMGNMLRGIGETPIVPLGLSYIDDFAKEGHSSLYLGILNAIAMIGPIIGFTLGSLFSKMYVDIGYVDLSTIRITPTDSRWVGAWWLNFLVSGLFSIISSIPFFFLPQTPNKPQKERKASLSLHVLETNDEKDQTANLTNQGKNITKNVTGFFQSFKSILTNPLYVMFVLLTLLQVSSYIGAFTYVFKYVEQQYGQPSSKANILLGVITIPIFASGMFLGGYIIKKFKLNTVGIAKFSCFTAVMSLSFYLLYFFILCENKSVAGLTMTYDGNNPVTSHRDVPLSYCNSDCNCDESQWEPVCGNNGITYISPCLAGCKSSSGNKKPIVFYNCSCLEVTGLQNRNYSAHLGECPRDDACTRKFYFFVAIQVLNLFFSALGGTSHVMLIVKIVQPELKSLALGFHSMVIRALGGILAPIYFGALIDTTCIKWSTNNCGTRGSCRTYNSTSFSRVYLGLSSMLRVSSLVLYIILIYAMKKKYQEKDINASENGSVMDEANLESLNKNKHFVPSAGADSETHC
Measured parameter: IC50 (µM)
// return numeric value only (unit: µM, not printed)

Reported IC50 for OATP1B1 (Homo sapiens, UniProt Q9Y6L6), given COc1cc(-c2oc3cc(O)cc(O)c3c(=O)c2O)ccc1O ?
3.12

###

Below, each entry is listed with its recorded concentration causing statistically significant (p < 0.01) inhibition, OATP1B1.
target: OATP1B1 (Homo sapiens); construct: expressed in transfected cells; host or cells: A431; assay: OATP1B1-mediated pyranine uptake in A431 cells overexpressing OATP1B1; assay type: cell-based; details: 10 μM pyranine, 15 min
The reply should contain only the number, in nM.

{"Compound": "O=c1c(O)c(-c2ccc(O)c(O)c2)oc2cc(O)cc(O)c12", "Target": "OATP1B1 (Homo sapiens)", "Reading": 1300}

If you can, please state the reported concentration causing statistically significant (p < 0.01) inhibition, OATP1B1 value of COc1cc(-c2oc3cc(O)cc(O)c3c(=O)c2OC2OC(C(=O)O)C(O)C(O)C2O)ccc1O (centres unmarked) [I3G, isorhamnetin-3-glucuronide] .
1600

Reported concentration causing statistically significant (p < 0.01) inhibition, OATP1B1, compound O=C(O)C1OC(Oc2c(-c3ccc(O)c(O)c3)oc3cc(O)cc(O)c3c2=O)C(O)C(O)C1O (centres unmarked) [Q3G, quercetin-3-glucuronide] : ____
1600

Can you look up the measured concentration causing statistically significant (p < 0.01) inhibition, OATP1B1 of O=c1c(O)c(-c2ccc(O)c(OS(=O)(=O)O)c2)oc2cc(O)cc(O)c12 [Q3′S, quercetin-3′-sulfate] for me?
300

Endpoint output: concentration causing statistically significant (p < 0.01) inhibition, OATP1B1 of COc1cc(-c2oc3cc(O)cc(O)c3c(=O)c2O)ccc1O . Value?
3100
